protocol.description: Metabolic stability in human liver microsomes assessed as clearance at 1 uM in presence of NADPH by LC-MS/MS analysis
Format: ADME, Microsome
parameter.measured: CLH (µL/min/mg)
Answer in µL/min/mg, number only, no unit symbol.

Prompt: I have this molecule here, CN1CCN(c2cc(F)c(-c3ccc(C(=O)N(C)C)cc3)cc2Nc2ncnc(Cl)c2N)CC1 , and I need its recorded CLH.
Completion: 14.1

----------
protocol.description: Tmax in Sprague-Dawley rat at 10 mg/kg, po measured upto 24 hrs by LC-MS/MS analysis
Format: ADME, organism-based
run.conditions: in vivo
parameter.measured: Tmax (h)
Answer in h, number only, no unit symbol.

Prompt: I have this molecule here, CN1CCN(c2cc(F)c(-c3ccc(C(=O)N(C)C)cc3)cc2Nc2ncnc(Cl)c2N)CC1 , and I need its recorded Tmax.
Completion: 2

----------
tested.target: Histone-lysine N-methyltransferase 2A/WDR5 (Homo sapiens, UniProt P61964)
protocol.description: Inhibition of MLL1-WDR5 (unknown origin) protein-protein interaction using Thr-FAM as probe by fluorescence polarization competition assay
pIC50 values, listed per item
Quick note: pIC50 means taking -log10 of the concentration in moles per liter.

Prompt: I have this molecule here, CCN1CCN(c2ccc([N+](=O)[O-])cc2Nc2ncnc(Cl)c2N)CC1 , and I need its recorded pIC50.
Completion: 4.42

Prompt: Next entry: CN1CCN(c2ccc(-c3ccc(C(=O)NCCCN4CCOCC4)cc3)c(F)c2Nc2ncnc(Cl)c2N)CC1
Completion: 4.16

----------
protocol.description: Apparent clearance in Sprague-Dawley rat at 10 mg/kg, po measured upto 24 hrs by LC-MS/MS analysis
Type: ADME, organism-based
run.conditions: in vivo
parameter.measured: CL/F (mL/min/kg)
Answer in mL/min/kg, number only, no unit symbol.

Prompt: I have this compound here, CN1CCN(c2cc(F)c(-c3ccc(C(=O)N(C)C)cc3)cc2Nc2ncnc(Cl)c2N)CC1 , and I need its recorded CL/F.
Completion: 97.2

----------
tested.target: Histone-lysine N-methyltransferase 2A/WDR5 (Homo sapiens)
protocol.description: Inhibition of MLL1-WDR5 (unknown origin) protein-protein interaction using Thr-FAM as probe by fluorescence polarization competition assay
parameter.measured: log10 of IC50 (log10 of the value in nM)
Reminder: these figures are log10 of reported IC50, in nM before transformation.

- smiles.data: "CN1CCN(C(=O)c2ccc(-c3ccc(N4CCN(C)CC4)c(Nc4ncnc(Cl)c4N)c3)cc2)CC1"
  log10 of IC50: 2.34

Prompt: I have this compound here, CN1CCN(c2cc(F)c(-c3ccc(C(=O)N4CCC(O)CC4)cc3)cc2Nc2ncnc(Cl)c2N)CC1 , and I need its recorded log10 of IC50.
Completion: 4.52

Prompt: Next entry: CN1CCN(c2ccc(-c3ccc(C(=O)NCCN4CCOCC4)cc3)cc2Nc2ncnc(Cl)c2N)CC1
Completion: 2.26

Prompt: Next entry: Cc1c(-c2ccc(C(=O)N(C)C)cc2)ccc(N2CCN(C)CC2)c1Nc1ncnc(Cl)c1N
Completion: 2.83

Prompt: Next entry: CN1CCN(c2ccc(-c3ccc(C(=O)NCCCN4CCOCC4)cc3)cc2Nc2ncnc(Cl)c2N)CC1
Completion: 2.20

Prompt: Next entry: CN1CCN(c2ccc(-c3ccc(C(=O)N4CCOCC4)cc3)cc2Nc2ncnc(Cl)c2N)CC1
Completion: 2.28
